Just for reference, patent US9567345B2 is where these values come from.

Item-by-item account of IC50
TGT: CDK9/Cyclin T1 (Homo sapiens)
Sequence (P50750 whole entry): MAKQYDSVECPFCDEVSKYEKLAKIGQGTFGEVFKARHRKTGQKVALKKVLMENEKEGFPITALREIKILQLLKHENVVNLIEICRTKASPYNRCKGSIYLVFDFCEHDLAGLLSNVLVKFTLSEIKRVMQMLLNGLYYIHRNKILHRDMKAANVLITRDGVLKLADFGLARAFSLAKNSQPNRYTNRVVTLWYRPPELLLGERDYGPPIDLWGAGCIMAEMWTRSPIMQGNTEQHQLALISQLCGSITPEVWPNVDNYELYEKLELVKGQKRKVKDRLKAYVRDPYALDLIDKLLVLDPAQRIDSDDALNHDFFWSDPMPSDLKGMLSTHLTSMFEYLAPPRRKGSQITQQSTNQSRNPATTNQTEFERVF
Sequence (O60563 whole entry partner): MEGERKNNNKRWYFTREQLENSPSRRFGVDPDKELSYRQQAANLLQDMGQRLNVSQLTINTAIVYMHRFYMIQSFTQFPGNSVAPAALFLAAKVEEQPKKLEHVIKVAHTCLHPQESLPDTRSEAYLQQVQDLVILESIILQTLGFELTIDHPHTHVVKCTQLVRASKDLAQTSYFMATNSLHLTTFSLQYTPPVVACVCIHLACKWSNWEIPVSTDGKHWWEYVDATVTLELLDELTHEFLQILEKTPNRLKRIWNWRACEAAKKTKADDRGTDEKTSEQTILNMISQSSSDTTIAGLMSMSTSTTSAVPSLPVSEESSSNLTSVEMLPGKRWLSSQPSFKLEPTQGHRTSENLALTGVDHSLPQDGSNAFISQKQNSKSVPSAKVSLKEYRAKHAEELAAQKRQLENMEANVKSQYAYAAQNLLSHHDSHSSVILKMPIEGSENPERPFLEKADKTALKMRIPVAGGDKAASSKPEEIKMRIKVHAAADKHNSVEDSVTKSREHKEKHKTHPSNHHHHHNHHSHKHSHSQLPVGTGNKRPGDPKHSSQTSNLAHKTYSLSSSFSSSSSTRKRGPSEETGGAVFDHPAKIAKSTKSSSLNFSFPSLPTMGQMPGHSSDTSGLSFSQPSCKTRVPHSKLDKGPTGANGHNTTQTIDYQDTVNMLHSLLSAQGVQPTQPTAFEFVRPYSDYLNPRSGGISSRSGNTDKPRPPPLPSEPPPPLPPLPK
ASSAY NOTES: CDK9 Enzymatic Activity Assay (Lance Kinase Activity Assay, FRET)
Format: biochemical
STUDY CONDITIONS: Table 5B, class symbols per IC50 [nM] ranges of b581; read-out: CDK9: Selectivity of CDK7 inhibition over CDK9 inhibition

Example entries and their recorded answers appear below.
COMPOUND	TGT	IC50
CC(C)c1cnn2c(NCc3ccccc3-n3cncn3)nc(OC3CCNCC3)nc12 [(VII-22)]	CDK9/Cyclin T1 (Homo sapiens)	500 to 2500 nM
CC(C)c1cnn2c(NCc3ccccc3-n3cccn3)nc(N3CCC(N)C3)nc12 (stereo not shown) [(VIII-054)]	CDK9/Cyclin T1 (Homo sapiens)	> 2500 nM
CC(C)c1cnn2c(NCc3ccccc3-n3cccn3)nc(N3CCCC34CCNC4)nc12 (stereo not shown) [(VIII-13)]	CDK9/Cyclin T1 (Homo sapiens)	> 2500 nM
CC(C)c1cnn2c(NCc3cccc4c3OCCCO4)nc(O[C@@H]3CCCNC3)nc12 [(VII-116)]	CDK9/Cyclin T1 (Homo sapiens)	500 to 2500 nM
CC(C)c1cnn2c(NCc3ccccc3-n3cccn3)nc([S+]([O-])C3CCNCC3)nc12 (stereo not shown) [(X-1)]	CDK9/Cyclin T1 (Homo sapiens)	500 to 2500 nM

Input: Find the measured IC50: item CC(C)c1cnn2c(NCc3ccccc3-n3cccn3)nc(C(=O)NCC3CNC3)nc12 [(XII-2)] , target or system CDK9/Cyclin T1 (Homo sapiens).
Output: > 2500 nM

Input: Find the measured IC50: item CC(C)c1cnn2c(NCc3ccccc3-n3cncn3)nc([S+]([O-])C3CCNCC3)nc12 (stereo not shown) [(X-4)] , target or system CDK9/Cyclin T1 (Homo sapiens).
Output: 500 to 2500 nM

Input: Find the measured IC50: item CC(C)c1cnn2c(NCc3ccccc3-n3cccn3)nc(C(=O)NCC3CCNC3)nc12 (stereo not shown) [(XII-3)] , target or system CDK9/Cyclin T1 (Homo sapiens).
Output: > 2500 nM

Input: Find the measured IC50: item COc1ccccc1[C@H](C)Nc1nc(O[C@@H]2CCNC2)nc2c(C(C)C)cnn12 [(VII-11)] , target or system CDK9/Cyclin T1 (Homo sapiens).
Output: 500 to 2500 nM

Input: Find the measured IC50: item CC(C)c1cnn2c(NCc3ccccc3C3CCCC3)nc(O[C@@H]3CCCNC3)nc12 [(VII-142)] , target or system CDK9/Cyclin T1 (Homo sapiens).
Output: > 2500 nM

Input: Find the measured IC50: item COc1ccccc1CNc1nc(OC2CCN(C)CC2)nc2c(C(C)C)cnn12 [(VII-71)] , target or system CDK9/Cyclin T1 (Homo sapiens).
Output: 50 to 500 nM

Input: Find the measured IC50: item CC(C)c1cnn2c(NCc3cccc4cc[n+]([O-])cc34)nc(O[C@@H]3CCCNC3)nc12 [(VII-32)] , target or system CDK9/Cyclin T1 (Homo sapiens).
Output: 50 to 500 nM

Input: Find the measured IC50: item CNS(=O)(=O)c1ccccc1CNc1nc(O[C@@H]2CCCNC2)nc2c(C(C)C)cnn12 [(VII-104)] , target or system CDK9/Cyclin T1 (Homo sapiens).
Output: > 2500 nM

Input: Find the measured IC50: item CCOc1ccccc1CNc1nc(OC2CCN(C)CC2)nc2c(C(C)C)cnn12 [(VII-70)] , target or system CDK9/Cyclin T1 (Homo sapiens).
Output: > 2500 nM

Input: Find the measured IC50: item CC(C)c1cnn2c(NCc3ccccc3-n3cccn3)nc(S(=O)(=O)C3CCNCC3)nc12 [(X-7)] , target or system CDK9/Cyclin T1 (Homo sapiens).
Output: > 2500 nM

Input: Find the measured IC50: item CC(C)c1cnn2c(NCc3ccccc3-n3cccn3)nc(N3CCC4(CCNCC4)C3)nc12 [(VIII-37)] , target or system CDK9/Cyclin T1 (Homo sapiens).
Output: > 2500 nM

Input: Find the measured IC50: item CC(C)c1cnn2c(NCc3ccccc3-n3cccn3)nc(N3CCC4(CCCN4)CC3)nc12 [(VIII-11)] , target or system CDK9/Cyclin T1 (Homo sapiens).
Output: > 2500 nM

Input: Find the measured IC50: item CC(C)c1cnn2c(NCc3ccccc3F)nc(OC3CCN(C)CC3)nc12 [(VII-56)] , target or system CDK9/Cyclin T1 (Homo sapiens).
Output: 50 to 500 nM

Input: Find the measured IC50: item CC(C)c1cnn2c(NCc3ccccc3-n3cccn3)nc(S[C@@H]3CCCNC3)nc12 [(X-8)] , target or system CDK9/Cyclin T1 (Homo sapiens).
Output: > 2500 nM

Input: Find the measured IC50: item CC(C)c1cnn2c(NCc3ccccc3-n3cccn3)nc(N3CCC4(CCNCC4)CC3)nc12 [(VIII-26)] , target or system CDK9/Cyclin T1 (Homo sapiens).
Output: > 2500 nM

Input: Find the measured IC50: item CC(C)c1cnn2c(NCc3ccccc3-n3cncn3)nc(O[C@@H]3CCNC3)nc12 [(VII-21)] , target or system CDK9/Cyclin T1 (Homo sapiens).
Output: 500 to 2500 nM

Input: Find the measured IC50: item COCCN1CCN(Cc2nc(NCc3ccccc3-n3cccn3)n3ncc(C(C)C)c3n2)CC1 [(XXX-9)] , target or system CDK9/Cyclin T1 (Homo sapiens).
Output: > 2500 nM
